The reported numbers originate from patent US9642819B2.

Tested on: ICAM-1, VCAM-1, and IL-6 gene expression
EXPERIMENT SUMMARY: TNF-α induced proinflammatory gene expression (ICAM-1, VCAM-1, IL-6) by Q-RT-PCR in RASM cells
Assay type: cell-based, rat
APPLIED CONDITIONS: RASM cells, TNF-α 10 ng/ml; ICAM-1, VCAM-1, IL-6; read-out: IC50 for inhibition of TNF-α mediated proinflammatory markers
MEASURED METRIC: IC50

For the molecule COc1cc(C[C@@H](C)N)c(OC)cc1I [(R)-DOI] , give its measured IC50 value.
0.01 to 0.02 nM
